SYSTEM: ATP-binding cassette sub-family C member 2 (Homo sapiens, UniProt Q92887)
Sequence (Q92887 whole entry): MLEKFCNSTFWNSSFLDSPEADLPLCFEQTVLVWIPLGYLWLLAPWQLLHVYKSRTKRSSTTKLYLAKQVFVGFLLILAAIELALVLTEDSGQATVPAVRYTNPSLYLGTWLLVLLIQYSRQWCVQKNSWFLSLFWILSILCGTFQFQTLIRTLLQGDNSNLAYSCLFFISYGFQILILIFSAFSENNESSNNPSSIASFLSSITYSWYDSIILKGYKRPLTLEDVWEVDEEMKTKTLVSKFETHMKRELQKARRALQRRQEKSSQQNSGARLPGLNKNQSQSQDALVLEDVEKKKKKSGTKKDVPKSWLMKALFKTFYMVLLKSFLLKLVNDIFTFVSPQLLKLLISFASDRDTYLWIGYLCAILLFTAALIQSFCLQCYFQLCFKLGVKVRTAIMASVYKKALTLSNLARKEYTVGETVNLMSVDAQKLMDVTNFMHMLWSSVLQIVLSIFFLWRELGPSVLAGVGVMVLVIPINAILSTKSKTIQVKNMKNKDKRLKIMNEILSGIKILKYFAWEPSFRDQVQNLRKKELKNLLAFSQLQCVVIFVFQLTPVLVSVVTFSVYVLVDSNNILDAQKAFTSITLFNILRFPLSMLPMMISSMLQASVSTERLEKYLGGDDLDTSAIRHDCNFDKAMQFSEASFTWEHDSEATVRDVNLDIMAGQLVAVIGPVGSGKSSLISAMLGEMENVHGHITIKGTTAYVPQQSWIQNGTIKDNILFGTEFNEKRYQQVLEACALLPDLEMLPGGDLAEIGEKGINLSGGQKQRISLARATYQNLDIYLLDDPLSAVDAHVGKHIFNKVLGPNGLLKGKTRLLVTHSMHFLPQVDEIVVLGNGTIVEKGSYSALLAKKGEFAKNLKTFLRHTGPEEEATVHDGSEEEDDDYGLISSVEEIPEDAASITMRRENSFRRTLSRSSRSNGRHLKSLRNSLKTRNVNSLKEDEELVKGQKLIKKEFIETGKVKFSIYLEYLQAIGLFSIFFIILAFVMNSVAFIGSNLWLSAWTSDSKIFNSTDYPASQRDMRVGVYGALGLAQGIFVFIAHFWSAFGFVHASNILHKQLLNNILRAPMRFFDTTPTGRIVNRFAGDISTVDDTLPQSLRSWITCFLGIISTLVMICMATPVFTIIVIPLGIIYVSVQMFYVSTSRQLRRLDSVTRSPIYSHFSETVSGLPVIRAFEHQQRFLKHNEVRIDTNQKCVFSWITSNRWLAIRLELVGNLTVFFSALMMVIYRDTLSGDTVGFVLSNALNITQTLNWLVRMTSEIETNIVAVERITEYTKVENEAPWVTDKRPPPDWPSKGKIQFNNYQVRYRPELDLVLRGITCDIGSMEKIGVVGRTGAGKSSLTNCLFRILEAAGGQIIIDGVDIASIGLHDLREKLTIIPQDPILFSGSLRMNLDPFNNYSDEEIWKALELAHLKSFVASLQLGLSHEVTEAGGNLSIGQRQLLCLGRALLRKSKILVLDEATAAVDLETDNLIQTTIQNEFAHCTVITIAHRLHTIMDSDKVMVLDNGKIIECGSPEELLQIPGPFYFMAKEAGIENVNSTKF
PROCEDURE_SUMMARY: Inhibition of ABCC2 (unknown origin) expressed in MDCK2 cells assessed as inhibition of calcein-AM efflux measured after 30 mins in presence of ABCB1 inhibitor GF120918 and ABCC1 inhibitor MK-571 by flow cytometry
PROPERTY_NAME: IC50 (µM)

STRUCTURE	IC50 / µM
O=C1/C(=C/c2cn(Cc3ccccc3)c3ccccc23)Oc2cc(O)cc(O)c21	12.2
CCCCn1c(/C=C2\Oc3cc(O)cc(O)c3C2=O)c(C)c2ccccc21	8.2

(1) O=C1/C(=C/c2cn(CC3CCCCC3)c3ccc(Br)cc23)Oc2cc(O)cc(O)c21
(2) CCCCn1cc(/C=C2\Oc3cc(O)cc(O)c3C2=O)c2cccc(OC)c21
Enquiry: Could you tell me which of these two has the smaller IC50 figure? First: 1 Second: 2 # answer = label of selected item
Return: 2
(2: 6.3 µM, 1: 15.8 µM)

----------
SYSTEM: ATP-binding cassette sub-family C member 2 (Homo sapiens)
PROCEDURE_SUMMARY: Inhibition of ABCC2 (unknown origin) expressed in MDCK2 cells assessed as inhibition of calcein-AM efflux measured after 30 mins in presence of ABCB1 inhibitor GF120918 and ABCC1 inhibitor MK-571 by flow cytometry
pIC50: −log10 of the molar value.
PROPERTY_NAME: pIC50

(P) CCCCn1cc(/C=C2\Oc3cc(O)cc(O)c3C2=O)c2cccc(C)c21
(Q) CCCCn1cc(/C=C2\Oc3cc(O)cc(O)c3C2=O)c2cc(Br)ccc21
Enquiry: pIC50 comparison. Which is larger, P or Q ? State the label of the item chosen.
Return: P

----------
SYSTEM: UniProt:Q92887
PROCEDURE_SUMMARY: Inhibition of ABCC2 (unknown origin) expressed in MDCK2 cells assessed as inhibition of calcein-AM efflux measured after 30 mins in presence of ABCB1 inhibitor GF120918 and ABCC1 inhibitor MK-571 by flow cytometry
PROPERTY_NAME: IC50 (µM)

# count of solved cases: 3
STRUCTURE	PROPERTY_NAME	RECORDED_RESULT
COc1cccc(Cn2cc(/C=C3\Oc4cc(O)cc(O)c4C3=O)c3ccccc32)c1	IC50	17.5
CCCCn1c(C)c(/C=C2\Oc3cc(O)cc(O)c3C2=O)c2ccccc21	IC50	11.4
O=C1/C(=C/c2cn(Cc3cccc(Br)c3)c3ccccc23)Oc2cc(O)cc(O)c21	IC50	14.4

(P) COc1ccc2c(c1)c(/C=C1\Oc3cc(O)cc(O)c3C1=O)cn2Cc1cccc(Br)c1
(Q) CC(C)=CCn1cc(/C=C2\Oc3cc(O)cc(O)c3C2=O)c2ccccc21
(R) CCCCn1cc(/C=C2\Oc3cc(O)cc(O)c3C2=O)c2cc(C)ccc21
Enquiry: Let's sort these by IC50, smallest first. Go ahead? Respond with an ordered listing of the labels, as requested.
Return: R, P, Q
(R: 4.8 µM, P: 7.3 µM, Q: 10.6 µM)

(a) O=C1/C(=C/c2cn(CC3CCCCC3)c3ccccc23)Oc2cc(O)cc(O)c21
(b) CCn1cc(/C=C2\Oc3cc(O)cc(O)c3C2=O)c2cc(Br)ccc21
Enquiry: Could you tell me which of these two has the smaller IC50 figure? First: a Second: b Kindly give the label for the entry you pick.
Return: a

(1) CCCCn1cc(/C=C2\Oc3cc(O)cc(O)c3C2=O)c2cc(OC)ccc21
(2) CCCCn1c(/C=C2\Oc3cc(O)cc(O)c3C2=O)cc2ccccc21
Enquiry: Given 1 and 2 , report the one with the higher recorded IC50. Choose, then provide that item's label.
Return: 1
(1: 13.9 µM, 2: 9 µM)
